Sourced from patent US20020137929A1

system: ORYSAT (Rice, Tebonnet); test: Postemergence herbicidal evaluation; format: in vivo, Oryza sativa, (L.) Tebonnet; conditions: postemergence, rate 0.0156 kg/ha
REPORTED_PROPERTY: Herbicidal rating ORYSAT
The response must contain the number and no unit.

Completed entries (count: 3):
>  <MOLECULE>
CC(C)COC(=O)CN1C(=O)CSC1=Nc1cc(-n2c(=O)cc(C(F)(F)F)n(C)c2=O)c(F)cc1Cl [Compound 121]

>  <TGT>
ORYSAT (Rice, Tebonnet)

>  <REPORTED_PROPERTY>
Herbicidal rating ORYSAT

>  <OBSERVED>
2.0

$$$$
>  <MOLECULE>
CCOC(=O)CN1C(=O)C(C(=O)OC(C)(C)C)SC1=Nc1cc(-n2c(=O)cc(C(F)(F)F)n(C)c2=O)c(F)cc1Cl (stereo not shown) [Compound 167]

>  <TGT>
ORYSAT (Rice, Tebonnet)

>  <REPORTED_PROPERTY>
Herbicidal rating ORYSAT

>  <OBSERVED>
3.0

$$$$
>  <MOLECULE>
Cn1c(C(F)(F)F)cc(=O)n(-c2cc(N=C3SCC(=O)N3Cc3ccc(F)cc3)c(Cl)cc2F)c1=O [Compound 151]

>  <TGT>
ORYSAT (Rice, Tebonnet)

>  <REPORTED_PROPERTY>
Herbicidal rating ORYSAT

>  <OBSERVED>
2.0

$$$$

Record CCOC(=O)CN1C(=O)C(C(=O)OC)SC1=Nc1cc(-n2c(=O)cc(C(F)(F)F)n(C)c2=O)c(F)cc1Cl (stereo not shown) [Compound 128] , field Herbicidal rating ORYSAT: 1.5

====

system: ABUTH (Velvetleaf); test: Postemergence herbicidal evaluation; format: in vivo, Abutilon theophrasti; settings: postemergence, rate 0.0313 kg/ha
REPORTED_PROPERTY: ABUTH herbicidal rating
Form rule: numeric answer, no unit written next to it.

>  <MOLECULE>
CCOC(=O)CN1C(=O)C(CC(=O)O)S/C1=N/c1cc(-n2c(=O)cc(C(F)(F)F)n(C)c2=O)c(F)cc1Cl (centres unmarked) [Compound 16]

>  <TGT>
ABUTH (Velvetleaf)

>  <ABUTH herbicidal rating>
9.0

$$$$
>  <MOLECULE>
CCOC(=O)CN1C(=O)CN(C)C1=Nc1cc(-n2c(=O)cc(C(F)(F)F)n(C)c2=O)c(F)cc1Cl [Compound 25]

>  <TGT>
ABUTH (Velvetleaf)

>  <ABUTH herbicidal rating>
9.0

$$$$
>  <MOLECULE>
CC(C)OC(=O)CC1SC(=Nc2cc(-n3c(=O)cc(C(F)(F)F)n(C)c3=O)c(F)cc2Cl)N(C)C1=O (centres unmarked) [Compound 89]

>  <TGT>
ABUTH (Velvetleaf)

>  <ABUTH herbicidal rating>
9.0

$$$$
>  <MOLECULE>
C=CCN1C(=O)C(CC(=O)OCCF)SC1=Nc1cc(-n2c(=O)cc(C(F)(F)F)n(C)c2=O)c(F)cc1Cl (centres unmarked) [Compound 86]

>  <TGT>
ABUTH (Velvetleaf)

>  <ABUTH herbicidal rating>
9.0

$$$$

# next molecule below
Param item: CCC1SC(=Nc2cc(N3C(=O)C4=C(CCCC4)C3=O)c(F)cc2Cl)N(C)C1=O (centres unmarked) [Compound 6] ; param system: ABUTH (Velvetleaf); output ABUTH herbicidal rating: 8.0

====

system: GALAP (Galium); experiment: Preemergence herbicidal evaluation; type: in vivo, Galium aparine; settings: rate 0.1250 kg/ha; rated 4-5 weeks after treatment; rating scale 0-9
Catalogue of Preemergence herbicidal rating GALAP readings, one per entry.
Form rule: numeric answer, no unit written next to it.

Sample answers from the record:
>  <COMPOUND>
Cn1c(C(F)(F)F)cc(=O)n(-c2cc(N=C3SCC(=O)N3Cc3cc(Cl)cc(Cl)c3)c(Cl)cc2F)c1=O [Compound 150]

>  <Preemergence herbicidal rating GALAP>
0.0

$$$$
>  <COMPOUND>
C=C1SC(=Nc2cc(-n3c(=O)cc(C(F)(F)F)n(C)c3=O)c(F)cc2Cl)N(CC(=O)OCC)C1=O [Compound 154]

>  <Preemergence herbicidal rating GALAP>
9.0

$$$$
>  <COMPOUND>
CCOC(=O)CN1C(=O)C(COC)SC1=Nc1cc(-n2c(=O)cc(C(F)(F)F)n(C)c2=O)c(F)cc1Cl (stereo not drawn) [Compound 156]

>  <Preemergence herbicidal rating GALAP>
4.0

$$$$
>  <COMPOUND>
Cn1c(C(F)(F)F)cc(=O)n(-c2cc(N=C3SCC(=O)N3Cc3ccc(Cl)c(Cl)c3)c(Cl)cc2F)c1=O [Compound 144]

>  <Preemergence herbicidal rating GALAP>
2.0

$$$$
>  <COMPOUND>
Cn1c(C(F)(F)F)cc(=O)n(-c2cc(N=C3SCC(=O)N3Cc3ccc(F)cc3)c(Cl)cc2F)c1=O [Compound 151]

>  <Preemergence herbicidal rating GALAP>
9.0

$$$$

Pending compound:
For this compound ( Cn1c(C(F)(F)F)cc(=O)n(-c2cc(N=C3SCC(=O)N3Cc3cccc(Cl)c3)c(Cl)cc2F)c1=O [Compound 136] ), measured Preemergence herbicidal rating GALAP is 2.0

====

system: MOOVA (Monochoria); assay: Preemergence weed control under flooded paddy conditions; assay type: in vivo, Monochoria vaginalis; settings: 0.0313 kg/ha, rated 3-4 weeks after treatment
Recorded MOOVA herbicidal effect rating values for a group of compounds are listed next.
In your answer, state the number alone without any accompanying words.

>  <COMPOUND>
CN1C(=O)C(CC(=O)OCCF)SC1=Nc1cc(-n2c(=O)cc(C(F)(F)F)n(C)c2=O)c(F)cc1Cl (stereo not shown)

>  <MOOVA herbicidal effect rating>
9.0

$$$$
>  <COMPOUND>
C#CCOC(=O)CC1SC(=Nc2cc(-n3c(=O)cc(C(F)(F)F)n(C)c3=O)c(F)cc2Cl)N(CC=C)C1=O (stereo not shown)

>  <MOOVA herbicidal effect rating>
9.0

$$$$
>  <COMPOUND>
C=CCN1C(=O)C(CC(=O)OCCF)SC1=Nc1cc(-n2c(=O)cc(C(F)(F)F)n(C)c2=O)c(F)cc1Cl (stereo not shown)

>  <MOOVA herbicidal effect rating>
9.0

$$$$
>  <COMPOUND>
C=CCOC(=O)CC1SC(=Nc2cc(-n3c(=O)cc(C(F)(F)F)n(C)c3=O)c(F)cc2Cl)N(CC=C)C1=O (stereo not shown)

>  <MOOVA herbicidal effect rating>
9.0

$$$$
>  <COMPOUND>
CCOC(=O)CN1C(=O)C(CC(=O)Nc2ccccc2)SC1=Nc1cc(-n2c(=O)cc(C(F)(F)F)n(C)c2=O)c(F)cc1Cl (stereo not shown)

>  <MOOVA herbicidal effect rating>
3.0

$$$$
>  <COMPOUND>
CC(C)OC(=O)CC1SC(=Nc2cc(-n3c(=O)cc(C(F)(F)F)n(C)c3=O)c(F)cc2Cl)N(C)C1=O (stereo not shown)

>  <MOOVA herbicidal effect rating>
9.0

$$$$

Attention now turns to another entry.
Lab book: MOOVA herbicidal effect rating of C=CCN1C(=O)C(CC(=O)NS(=O)(=O)c2ccccc2)SC1=Nc1cc(-n2c(=O)cc(C(F)(F)F)n(C)c2=O)c(F)cc1Cl (stereo not shown) noted as 5.0

====

system: GALAP (Galium); assay: Preemergence herbicidal evaluation; assay type: in vivo, Galium aparine; settings: rate 0.2500 kg/ha; rated 4-5 weeks after treatment; rating scale 0-9
Preemergence herbicidal rating GALAP vs 3: at or above is yes (1), below is no (0).

Study these solved cases before continuing.
>  <COMPOUND>
CN(C)c1ccc(CN2C(=O)CSC2=Nc2cc(-n3c(=O)cc(C(F)(F)F)n(C)c3=O)c(F)cc2Cl)cc1

>  <ASSIGNED_CATEGORY>
yes (1)

$$$$
>  <COMPOUND>
Cc1ccc(CN2C(=O)CSC2=Nc2cc(-n3c(=O)cc(C(F)(F)F)n(C)c3=O)c(F)cc2Cl)cc1Cl

>  <ASSIGNED_CATEGORY>
no (0)

$$$$
>  <COMPOUND>
CCOC(=O)CN1C(=O)C(COC)SC1=Nc1cc(-n2c(=O)cc(C(F)(F)F)n(C)c2=O)c(F)cc1Cl (centres unmarked)

>  <ASSIGNED_CATEGORY>
yes (1)

$$$$

Then this compound:
Incoming: Please indicate if the recorded Preemergence herbicidal rating GALAP for Cn1c(C(F)(F)F)cc(=O)n(-c2cc(N=C3SCC(=O)N3Cc3cccnc3)c(Cl)cc2F)c1=O meets or exceeds 3.
Outgoing: yes (1)

====

system: MOOVA (Monochoria); assay: Postemergence weed control under flooded paddy conditions; format: in vivo, Monochoria vaginalis; details: Rate 0.2500 kg/ha, postemergence weeds, rated 3 to 4 weeks after treatment
Documented Herbicidal rating MOOVA across a set of compounds
Hey, just send me the number, nothing else.

Consider the reported Herbicidal rating MOOVA for these compounds:
>  <COMPOUND>
CCOC(=O)CN1C(=O)C(CC(=O)Nc2ccccc2)SC1=Nc1cc(-n2c(=O)cc(C(F)(F)F)n(C)c2=O)c(F)cc1Cl (centres unmarked)

>  <TGT>
MOOVA (Monochoria)

>  <REPORTED_PROPERTY>
Herbicidal rating MOOVA

>  <OBSERVED>
9.0

$$$$
>  <COMPOUND>
CCOC(=O)CN1C(=O)C(CC(=O)NO)S/C1=N/c1cc(-n2c(=O)cc(C(F)(F)F)n(C)c2=O)c(F)cc1Cl (centres unmarked)

>  <TGT>
MOOVA (Monochoria)

>  <REPORTED_PROPERTY>
Herbicidal rating MOOVA

>  <OBSERVED>
9.0

$$$$
>  <COMPOUND>
CC(C)OC(=O)CC1SC(=Nc2cc(-n3c(=O)cc(C(F)(F)F)n(C)c3=O)c(F)cc2Cl)N(C)C1=O (centres unmarked)

>  <TGT>
MOOVA (Monochoria)

>  <REPORTED_PROPERTY>
Herbicidal rating MOOVA

>  <OBSERVED>
9.0

$$$$
>  <COMPOUND>
C=CCN1C(=O)C(CC(=O)NS(C)(=O)=O)SC1=Nc1cc(-n2c(=O)cc(C(F)(F)F)n(C)c2=O)c(F)cc1Cl (centres unmarked)

>  <TGT>
MOOVA (Monochoria)

>  <REPORTED_PROPERTY>
Herbicidal rating MOOVA

>  <OBSERVED>
3.0

$$$$
>  <COMPOUND>
CN1C(=O)C(CC(=O)NS(=O)(=O)c2ccccc2)SC1=Nc1cc(-n2c(=O)cc(C(F)(F)F)n(C)c2=O)c(F)cc1Cl (centres unmarked)

>  <TGT>
MOOVA (Monochoria)

>  <REPORTED_PROPERTY>
Herbicidal rating MOOVA

>  <OBSERVED>
0.0

$$$$
>  <COMPOUND>
C=CCN1C(=O)C(CC(=O)OCCF)SC1=Nc1cc(-n2c(=O)cc(C(F)(F)F)n(C)c2=O)c(F)cc1Cl (centres unmarked)

>  <TGT>
MOOVA (Monochoria)

>  <REPORTED_PROPERTY>
Herbicidal rating MOOVA

>  <OBSERVED>
9.0

$$$$
>  <COMPOUND>
CC(C)S(=O)(=O)NC(=O)CC1SC(=Nc2cc(-n3c(=O)cc(C(F)(F)F)n(C)c3=O)c(F)cc2Cl)N(C)C1=O (centres unmarked)

>  <TGT>
MOOVA (Monochoria)

>  <REPORTED_PROPERTY>
Herbicidal rating MOOVA

>  <OBSERVED>
9.0

$$$$

// next item, Herbicidal rating MOOVA requested
Query C=CCN1C(=O)C(CC(=O)NS(=O)(=O)CC)SC1=Nc1cc(-n2c(=O)cc(C(F)(F)F)n(C)c2=O)c(F)cc1Cl (centres unmarked) on MOOVA (Monochoria); Herbicidal rating MOOVA returned: 9.0
